The following compounds are shown together with reported IC50 values.
Molecular target: PI3K γ (Homo sapiens (Human))
Assay: PI 3-Kinase (human) HTRF assay, p110γ
Format: biochemical
Settings: read-out: PI3K δ IC50
Assay metric: IC50

Compound: CNS(=O)(=O)c1cc(-c2ccc3ncc(C(=O)N4CCOCC4)n3c2)ccc1OC
Assay system: PI3K γ (Homo sapiens (Human))
Recorded result: > 10 µM
//
Compound: CN(C)CC(=O)N1CCN(c2cnc3ccc(-c4ccc5oc(N)nc5c4)cc3n2)CC1 [drawing 407]
Assay system: PI3K γ (Homo sapiens (Human))
Recorded result: < 1 µM
//
Compound: CN1CCC(n2cnc3ccc(-c4cnc(Cl)c(NS(=O)(=O)c5ccccc5)c4)cc3c2=O)CC1
Assay system: PI3K γ (Homo sapiens (Human))
Recorded result: < 1 µM
//
Compound: CC(=O)n1nc(N)c2ccc(-c3ccc4oc(N)nc4c3)cc21
Assay system: PI3K γ (Homo sapiens (Human))
Recorded result: > 10 µM
//
Compound: CN1CCN(C2CN(C(=O)c3cnc4ccc(-c5ccc6oc(N)nc6c5)cn34)C2)CC1
Assay system: PI3K γ (Homo sapiens (Human))
Recorded result: > 10 µM
//
Compound: Nc1nc2cc(-c3ccc4ncc(C(=O)N5CCC(N6CC(F)(F)C6)C5)n4c3)ccc2o1 (centres unmarked)
Assay system: PI3K γ (Homo sapiens (Human))
Recorded result: < 10 µM
//
Compound: Nc1nc2cc(-c3ccc4ncc(N5CC(N6CCOCC6)C5)nc4c3)ccc2o1
Assay system: PI3K γ (Homo sapiens (Human))
Recorded result: < 10 µM
//
Compound: Nc1nc2cc(-c3ccn4ncc(-c5ccncc5)c4c3)ccc2o1
Assay system: PI3K γ (Homo sapiens (Human))
Recorded result: < 0.1 µM
//
Compound: O=C(c1cnc2ccc(-c3cccc(S(=O)(=O)Nc4cc(F)ccc4F)c3)cn12)N1CCOCC1
Assay system: PI3K γ (Homo sapiens (Human))
Recorded result: > 10 µM
//
Compound: Nc1nc2cc(-c3ccc4ncn(CCN5CCCC5)c(=O)c4c3)ccc2o1
Assay system: PI3K γ (Homo sapiens (Human))
Recorded result: < 10 µM
//
Compound: Nc1nc2cc(-c3ccc4ncc(C(=O)N5CCn6cncc6C5)n4c3)ccc2o1
Assay system: PI3K γ (Homo sapiens (Human))
Recorded result: < 10 µM
//
Compound: Nc1nc2cc(-c3ccc4ncc(C(=O)N5CC[C@H](N6CCOCC6)C5)n4c3)ccc2o1
Assay system: PI3K γ (Homo sapiens (Human))
Recorded result: < 1 µM
//
Compound: Cc1ccn(C2CCN(c3cnc4ccc(-c5ccc6oc(N)nc6c5)cc4n3)CC2)n1
Assay system: PI3K γ (Homo sapiens (Human))
Recorded result: < 1 µM
//
Compound: CC(Oc1nc(-c2ccc3oc(N)nc3c2)cnc1N)C(F)(F)F (centres unmarked)
Assay system: PI3K γ (Homo sapiens (Human))
Recorded result: < 10 µM
//
Compound: CCN(CC)C1CN(c2cnc3ccc(-c4ccc5oc(N)nc5c4)cc3n2)C1
Assay system: PI3K γ (Homo sapiens (Human))
Recorded result: < 1 µM
//
Compound: Nc1cn2cc(-c3ccc4oc(N)nc4c3)ccc2n1
Assay system: PI3K γ (Homo sapiens (Human))
Recorded result: < 1 µM
//
Compound: CCN(CC)CC(=O)N1CCN(c2cnc3ccc(-c4ccc5oc(N)nc5c4)cc3n2)CC1
Assay system: PI3K γ (Homo sapiens (Human))
Recorded result: < 10 µM
//
Compound: CN(C)C1CN(c2cnc3ccc(-c4ccc5oc(N)nc5c4)cc3n2)C1
Assay system: PI3K γ (Homo sapiens (Human))
Recorded result: < 10 µM
//
Compound: Cc1cc2oc(N)nc2cc1-c1ccc2ncc(C(=O)N3CCOCC3)n2c1
Assay system: PI3K γ (Homo sapiens (Human))
Recorded result: > 10 µM
//
Compound: CC(C)[C@@H](N)C(=O)N1CCN(c2cnc3ccc(-c4ccc5oc(N)nc5c4)cc3n2)CC1
Assay system: PI3K γ (Homo sapiens (Human))
Recorded result: < 1 µM

---

# maps each entry to its IC50
Target: PI3K γ (Homo sapiens (Human))
Assay: PI 3-Kinase (human) HTRF assay, p110γ
Type: biochemical
Conditions: read-out: PI3K γ IC50
Assay metric: IC50

Smiles code: Nc1nc2cc(-c3ccc4nc(N5CCOCC5)cnc4n3)ccc2o1
Recorded result: > 10 µM
//
Smiles code: Cc1nccn1C1CN(c2cnc3ccc(-c4ccc5oc(N)nc5c4)nc3n2)C1
Recorded result: < 10 µM
//
Smiles code: Nc1nc2cc(-c3ccc4ncc(C(=O)N5CCOCC5)nc4c3)ccc2o1
Recorded result: > 10 µM
//
Smiles code: Nc1nc2cc(-c3ccc4nccn4c3)ccc2o1
Recorded result: < 10 µM
//
Smiles code: CS(=O)(=O)N1CCN(c2cnc3ccc(-c4ccc5oc(N)nc5c4)cc3n2)CC1
Recorded result: < 0.1 µM
//
Smiles code: NCC(=O)N1CCN(c2cnc3ccc(-c4ccc5oc(N)nc5c4)cc3n2)CC1
Recorded result: < 1 µM
//
Smiles code: CC(C)N1CCN(c2cnc3ccc(-c4ccc5oc(N)nc5c4)nc3n2)CC1
Recorded result: < 1 µM
//
Smiles code: Nc1nc2cc(-c3ccc4ncc(OC5CCOCC5)nc4c3)ccc2o1
Recorded result: < 1 µM
//
Smiles code: Nc1nc2cc(-c3ccc4ncc(C(=O)N5CCN(CCO)CC5)n4c3)ccc2o1
Recorded result: < 10 µM
//
Smiles code: Cc1ccc(-c2cnc3ccc(-c4ccc5oc(N)nc5c4)cc3n2)cn1
Recorded result: < 0.1 µM
//
Smiles code: Cc1nc2ccc(-c3ccc4oc(N)nc4c3)cn2c1C(=O)N1CCOCC1
Recorded result: > 10 µM
//
Smiles code: Nc1nc2cc(-c3ccc4ncc(N5CC(N6CCN(CC7CC7)CC6)C5)cc4n3)ccc2o1
Recorded result: < 10 µM
//
Smiles code: CCN1CCN(c2cnc3ccc(-c4ccc5oc(N)nc5c4)cc3n2)CC1
Recorded result: < 1 µM
//
Smiles code: CCN1CCN(C(=O)c2cnc3ccc(-c4ccc5oc(N)nc5c4)cn23)CC1
Recorded result: < 10 µM
//
Smiles code: Cc1nc2ccc(-c3ccc4oc(N)nc4c3)nn2c1-c1ccncc1
Recorded result: < 0.1 µM
//
Smiles code: Nc1nc2cc(-c3ccc4ncn(C5CCOCC5)c4c3)ccc2o1
Recorded result: > 10 µM
//
Smiles code: C[C@@H]1CN(c2cnc3ccc(-c4ccc5oc(N)nc5c4)cc3n2)C[C@H](C)O1
Recorded result: < 10 µM
//
Smiles code: CNC(=O)N1CCN(c2cnc3ccc(-c4ccc5oc(N)nc5c4)cc3n2)CC1
Recorded result: < 0.1 µM
//
Smiles code: Nc1nc2cc(-c3ccc4ncc(N5CC(N6CCOCC6)C5)cc4n3)ccc2o1
Recorded result: < 1 µM
//
Smiles code: CN(C)C1CCN(c2cnc3ccc(-c4ccc5oc(N)nc5c4)cc3n2)CC1
Recorded result: < 1 µM
//
Smiles code: Nc1nsc2ccc(-c3ccc4nccc(-c5ccncc5)c4c3)cc12
Recorded result: > 10 µM
//
Smiles code: Nc1nc2cc(-c3cn4c(-c5cn[nH]c5)cnc4cn3)ccc2o1
Recorded result: < 1 µM
//
Smiles code: Nc1nc2ccc(-c3ccc4ncc(C(=O)N5CCOCC5)n4c3)cc2s1
Recorded result: < 1 µM
//
Smiles code: CN1CCN(C(=O)c2cnc3ccc(-c4ccc5sc(N)nc5c4)cn23)CC1
Recorded result: > 10 µM
//
Smiles code: Nc1nc2cc(-c3ccc4ncc(N[C@H]5CC[C@H](O)CC5)nc4c3)ccc2o1
Recorded result: < 0.1 µM
//
Smiles code: CN1CCN(C2CN(c3cnc4ccc(-c5ccc6oc(N)nc6c5)nc4n3)C2)CC1
Recorded result: > 10 µM
//
Smiles code: Nc1nc2cc(-c3ccc4ncc(N5CCN(CCO)CC5)nc4c3)ccc2o1
Recorded result: < 1 µM
//
Smiles code: Nc1nc2cc(-c3ccc4ncc(-c5ccnc(N6CCOCC6)c5)nc4c3)ccc2o1
Recorded result: > 10 µM
//
Smiles code: Nc1nc2cc(-c3ccc4ncc(N5CC(N6CCOCC6)C5)nc4n3)ccc2o1
Recorded result: < 10 µM
//
Smiles code: C[C@H]1CN(c2cnc3ccc(-c4ccc5oc(N)nc5c4)nc3n2)CCN1
Recorded result: < 10 µM
//
Smiles code: Nc1nc2cc(-c3ccc4ncc(N5CC(N6CCN(CCO)CC6)C5)nc4n3)ccc2o1
Recorded result: < 10 µM
//
Smiles code: C[C@H]1CN(C2CN(c3cnc4ccc(-c5ccc6oc(N)nc6c5)nc4c3)C2)CCN1C
Recorded result: < 10 µM
//
Smiles code: CN1CCN(c2cnc3ccc(-c4ccc5nc(N)oc5c4)cc3n2)CC1
Recorded result: < 10 µM
//
Smiles code: CN1CCN(c2cnc3ccc(-c4ccc5oc(N)nc5c4)cc3n2)CC1
Recorded result: < 1 µM
//
Smiles code: Nc1nc2cc(-c3ccc4ncc(N5CCN(C(=O)[C@@H]6CCCN6)CC5)nc4c3)ccc2o1
Recorded result: < 0.1 µM
//
Smiles code: Nc1nc2cc(-c3ccc4ncc(N5CC6CCC(C5)O6)nc4n3)ccc2o1
Recorded result: < 1 µM
//
Smiles code: Nc1noc2cc(-c3ccc4nccc(-c5ccncc5)c4c3)ccc12
Recorded result: < 1 µM
//
Smiles code: CC1(C)CN(C2CN(c3cnc4ccc(-c5ccc6oc(N)nc6c5)nc4n3)C2)CCN1
Recorded result: < 10 µM
//
Smiles code: Cn1cc(-c2ccnc3ccc(-c4ccc5oc(N)nc5c4)cc23)cn1
Recorded result: < 0.1 µM
//
Smiles code: Nc1nc2cc(-c3ccc4ncc(-c5cccnc5)n4c3)ccc2o1
Recorded result: < 0.1 µM
